- experiment.notes: NCI Yeast Anticancer Drug Screen. Data for the mec2-1 strain (AID 157)
- experimental.setup: S. cerevisiae mec2-1 strain, at 50.0 µM, stronger effect = higher value
- Protocol: Growth inhibition of yeast strains with defined genetic alterations is measured as a screen for potential anti-cancer activity. Selected strains with alterations in DNA damage repair or cell cycle control were exposed to compounds and growth inhibition was measured relative to vehicle treated controls. The strain used in this assay is mec2-1
This is part of a sample that, as a whole, favours compounds with a hit. Of some 79,000 tested, about 15% had one in any assay.
metric.name: growth inhibition (%)
Give your result in % as a bare value.

Looking up CSc1nc(=S)c2[nH]c(C)nc2[nH]1 , I see its growth inhibition listed as 99.6

Looking up CC(=O)O[C@H]1CC[C@H]2[C@@H]3CCc4cc(O)c(I)cc4[C@H]3CC[C@]12C , I see its growth inhibition listed as 43.8

Looking up CCOC(=O)/C(Cl)=C(\OCC)C(=O)OCC , I see its growth inhibition listed as 12.3

Looking up O=C(CC(c1ccccc1Cl)C(C(=O)O)c1ccccc1)c1ccccc1 (configuration not stated) , I see its growth inhibition listed as 71.7

Looking up Cc1ccc(N2C(=O)C(C)SC23C(=O)Nc2ccc(Cl)cc23)cc1 (configuration not stated) , I see its growth inhibition listed as 98.8

Looking up NC(=O)NN=C1CSSC1 , I see its growth inhibition listed as 76.5

Looking up CCCCN(C)C(=S)N/N=C(\C)c1ccccn1 , I see its growth inhibition listed as 99.8

Looking up CN(C)/N=C(/CC(O)(C(F)(F)F)C(F)(F)F)c1ccc([N+](=O)[O-])cc1 , I see its growth inhibition listed as -8.95

Looking up CCOC(=O)C(NC(=O)C(CO)n1c(-c2ccccc2)c(-c2ccccc2)oc1=O)C(=O)OCC (configuration not stated) , I see its growth inhibition listed as 26.4

Looking up C=C/C=C/CC=C , I see its growth inhibition listed as 1.2

Looking up NC1=CC(=O)c2ccccc2C1=O , I see its growth inhibition listed as 62.3

Looking up CC(C)Cc1ncc(CC(C)C)n(O)c1=O , I see its growth inhibition listed as 87.8
